GI50 reference
system: OVCAR-3; assay: NCI tumour cell line growth inhibition, 48 h
Calls of active or inactive are those of the source. No stated cut-off is given here; in the data, active = GI50 up to about 1.1 µM and inactive = higher.

Consider the following illustrative entries.
Compound	GI50
CCOC(=O)CNC(=O)C(C)NC(=O)C(NC(=O)CC(c1ncc[nH]1)c1ncc[nH]1)C(C)CC (configuration not stated)	> 100 µM (inactive)
CCCCCCC(=O)O[C@H]1CC[C@H]2[C@@H]3CCC4C/C(=N/NC(=O)c5cccc6c(=O)c7ccccc7[nH]c56)C=C(C)[C@]4(C)[C@H]3CC[C@]12C (some centres not stated)	> 25 µM (inactive)
COC1CC(OC2CCC3(C)C(=CCC4C3C(OC(C)=O)C(OC(=O)CC(C)C)C3(C)C(C(C)=O)CCC43O)C2)OC(C)C1OC1CC(OC)C(OC2CC(OC)C(OC3OC(C)C(OC4OC(CO)C(O)C(O)C4O)C(OC)C3O)C(C)O2)C(C)O1 (configuration not stated)	> 75 µM (inactive)
O=C1OC(c2cccc(C(F)(F)F)c2)(c2cccc(C(F)(F)F)c2)c2ccc3ccccc3c21	4.23 µM (inactive)
CC(C)OP(=O)(OC(C)C)C(C(C)C)N(C)/C(N)=N/C#N (configuration not stated)	> 100 µM (inactive)
FC(F)(F)c1ccc2c(c1)N(CCCNCCN1CCOCC1)c1ccccc1S2	11.4 µM (inactive)

# query: GI50 of entry O=S(=O)(O)C(CO)c1ccccc1.O=S(=O)(O)Cc1ccccc1 (configuration not stated) > 100 µM (inactive)

* * *

GI50 reference
test system: OVCAR-5; assay: NCI tumour cell line growth inhibition, 48 h
Calls of active or inactive are those of the source. Rule as the data show it: active = GI50 up to about 1.1 µM and inactive = higher.

Consider the following illustrative entries.
Compound	Result
Cc1nn(C(=O)c2ccccc2O)c2c1C(c1ccccc1O)SC(=N)N2 (stereo not drawn)	6.32 µM (inactive)
CCOC(=O)c1c(N2CCCC2)[nH]c(=O)c(C(c2cccs2)c2c(O)c(C(=O)OCC)c(N3CCCC3)[nH]c2=O)c1O	> 100 µM (inactive)
CCOC(=O)CNC(=O)C(C)NC(=O)C(NC(=O)CC(c1ncc[nH]1)c1ncc[nH]1)C(C)CC (stereo not drawn)	> 100 µM (inactive)

# query: GI50 of entry O=C(O)CCN1C(=S)CSC1=S > 100 µM (inactive)

# query: GI50 of entry COC1=C(OC)C(=O)C(Cc2c(-c3ccccc3)nc3sc(Cl)cn23)=C(C)C1=O 28.2 µM (inactive)

# query: GI50 of entry O=CN1CCN(c2ccc3ccc(O)nc3n2)CC1 > 100 µM (inactive)

# query: GI50 of entry CCCCCCOc1ccc(C(=O)N(C)O)cc1 67.3 µM (inactive)

* * *

test system: XF498; experiment: NCI tumour cell line growth inhibition, 48 h
The source made the active and inactive calls. Cut-off read from the data, not from the text of the source: active = GI50 up to about 1.1 µM and inactive = higher.
Pick one: 1 (yes) for active, 0 (no) for inactive

Take a look at these entries with their results.
Compound	Subject of test	Group
CCOC(=O)Nc1ccc(S(=O)(=O)OC)cc1.CCOC(=O)Nc1ccc(S(=O)(=O)OC)cc1.Nc1ncnc2c1ncn2C1OC(CO)C(O)C1O (stereo not drawn)	XF498	0 (no)
CC1NCCc2c1[nH]c1cc(O)ccc21 (stereo not drawn)	XF498	0 (no)
COC(=O)/C(=N\Nc1nc(S)nn1N)C(C#N)c1ccc(Cl)cc1 (stereo not drawn)	XF498	0 (no)
C/C(CCn1[nH]c(=O)ccc1=O)=N\O	XF498	0 (no)
COC(=O)/C(C#N)=C1\CCC(Nc2cccc(C(F)(F)F)c2)N1C (stereo not drawn)	XF498	0 (no)
CCC(=O)NCC1(c2c[nH]c3ccccc23)SCCS1	XF498	0 (no)
CCOC(=O)CC1=Nc2ccccc2SC1	XF498	0 (no)
CC1(Cl)C(=O)NC(=O)N([C@H]2C[C@H](O)[C@@H](CO)O2)C1N=[N+]=[N-] (stereo partly drawn)	XF498	0 (no)

Record request — test call for CC(=O)Oc1ccc(O)c(O)c1C/C=C(\C)CC/C=C(\C)CC/C=C(\C)CCC=C(C)C [TETRAPRENYLPHENOLSUILLIN] 1 (yes)

Record request — test call for CCSc1nnc(CSc2nc(-c3ccccc3)c(-c3ccccc3)[nH]2)n1-c1ccccc1 0 (no)

Record request — test call for CCOC1=NC(=O)CC(c2ccccc2)S1 (stereo not drawn) 0 (no)

Record request — test call for O=C(NCCCOC(=O)CCCCCCCCC(=O)OCCCNC(=O)NC(=O)c1c[nH]c(=O)[nH]c1=O)NC(=O)c1c[nH]c(=O)[nH]c1=O 0 (no)

Record request — test call for COCC1C(=O)c2cc3c(cc2C12C=CC1(C=C2)OCCO1)OCO3 (stereo not drawn) 0 (no)
